Give melting point for every item shown.

O=C(/C=C/c1cc(Br)c(O)c(Br)c1)c1cccs1 :: 269.3 to 272 °C

Batch request: melting point for each of the following molecules.
1. COc1cc(/C=C/C(=O)c2cccs2)cc(OC)c1O
2. O=C(/C=C/c1ccc(O)c(Br)c1)c1cccs1
3. COc1cc(/C=C/C(=O)c2cccs2)ccc1O
4. O=C(/C=C/c1ccc(O)c(O)c1)c1cccs1

1: 143.6 to 147.3 °C; 2: 195.2 to 199.6 °C; 3: 132.8 to 135.2 °C; 4: 182.5 to 185.7 °C

====

# assayedTarget: mushroom tyrosinase
# assayProtocol: Enzyme kinetic analysis in mushroom tyrosinase inhibition (Lineweaver-Burk and Dixon plots)
# Assay type: biochemical
# settings: substrate L-tyrosine; Dixon plot
measuredParameter: Ki (nM)
Give bare numbers, in nM.

// fetch Ki; item: `O=C(/C=C/c1ccc(O)cc1O)c1cccs1` ; system: mushroom tyrosinase
5.01

====

# assayedTarget: mushroom tyrosinase
# assayProtocol: Mushroom tyrosinase inhibitory assay (L-tyrosine or L-DOPA as substrate)
# Format: biochemical
# settings: substrate L-tyrosine; mean ± SEM of triplicate experiments; read-out: IC50 (μM), L-tyrosine as substrate (monophenolase / tyrosine hydroxylase)
For each of the molecules below, state its IC50.
Give bare numbers, in µM.

Here are 2 molecules together with their reported answers.
O=C(/C=C/c1ccc(O)cc1)c1cccs1 :: 46.2
COc1cc(/C=C/C(=O)c2cccs2)cc(OC)c1O :: 77.9

Fill in IC50 for each of the 3 molecules listed.
1. COc1cc(/C=C/C(=O)c2cccs2)ccc1O
2. O=C(/C=C/c1ccc(O)c(O)c1)c1cccs1
3. COc1ccc(/C=C/C(=O)c2cccs2)cc1O

98.8
75.7
17.4

====

# assayedTarget: mushroom tyrosinase
# assayProtocol: Enzyme kinetic analysis in mushroom tyrosinase inhibition (Lineweaver-Burk and Dixon plots)
# Type: biochemical
# settings: substrate L-DOPA; Dixon plot
measuredParameter: pKi
Give bare numbers, as −log10 of the molar value.

Enter measured pKi, system mushroom tyrosinase, for the compound shown: O=C(/C=C/c1ccc(O)cc1O)c1cccs1 [1c]
5.75

====

# assayedTarget: mushroom tyrosinase
# assayProtocol: Mushroom tyrosinase inhibitory assay (L-tyrosine or L-DOPA as substrate)
# Type: biochemical
# settings: substrate L-DOPA; mean ± SEM of triplicate experiments; read-out: IC50 (μM), L-DOPA as substrate (diphenolase / dopa oxidase)
For each entry below, report its IC50 value.

// for each molecule in input: emit IC50
1. O=C(/C=C/c1cc(Br)c(O)c(Br)c1)c1cccs1
2. COc1cc(/C=C/C(=O)c2cccs2)ccc1O

> 200 µM
> 200 µM

Quickly give me recorded IC50 for `COc1cc(/C=C/C(=O)c2cccs2)cc(OC)c1O`
> 200 µM
